Data origin, for the record: ChEMBL document CHEMBL3044763

- run description: Toxicity in Mus musculus ddY (mouse) assessed as mortality at 375 mg/kg, ip after 5 days
- Type: organism-based
- Parameters: dose 375 mg/kg, route intraperitoneal
- assay context: in vivo
measured metric: mortality at 120 h (%)

molecular string | measured metric | result units | numeric readout
O=C1CSC(=S)N1 | mortality at 120 h | % | 100

====

- run description: Toxicity in Mus musculus ddY (mouse) assessed as mortality at 225 mg/kg, ip after 3 days
- Type: organism-based
- Design: dose 225 mg/kg, route intraperitoneal
- assay context: in vivo
measured metric: mortality at 72 h (%)

molecular string | measured metric | result units | numeric readout
CN1C(=O)CSC1=S | mortality at 72 h | % | 20

====

- run description: Toxicity in Mus musculus ddY (mouse) assessed as mortality at 3 mg/kg, ip after 2 days
- Format: organism-based
- Design: dose 3 mg/kg, route intraperitoneal
- assay context: in vivo

compound | mortality at 48 h / %
NN1C(=O)CSC1=S [AMINORHODANINE] | 0

====

- run description: Toxicity in Mus musculus ddY (mouse) assessed as mortality at 300 mg/kg, ip after 7 days
- Format: organism-based
- Design: dose 300 mg/kg, route intraperitoneal
- assay context: in vivo
Listing of entries alongside the reported mortality at 168 h.
measured metric: mortality at 168 h (%)

molecular string | measured metric | numeric readout
O=C1CSC(=S)N1 | mortality at 168 h | 40
CN1C(=O)CSC1=S | mortality at 168 h | 80

====

- run description: Toxicity in Mus musculus ddY (mouse) assessed as mortality at 350 mg/kg, ip after 7 days
- Type: organism-based
- Parameters: dose 350 mg/kg, route intraperitoneal
- assay context: in vivo
measured metric: mortality at 168 h (%)

molecular string | numeric readout
O=C1CSC(=S)N1 | 80

====

- run description: Toxicity in Mus musculus ddY (mouse) assessed as mortality at 450 mg/kg, ip after 5 days
- Assay type: organism-based
- Set-up: dose 450 mg/kg, route intraperitoneal
- assay context: in vivo

molecular string | mortality at 120 h, %
O=C(O)CN1C(=O)CSC1=S | 20

====

- run description: Toxicity in Mus musculus ddY (mouse) assessed as mortality at 7 mg/kg, ip after 4 days
- Type: organism-based
- Parameters: dose 7 mg/kg, route intraperitoneal
- assay context: in vivo

molecular string | mortality at 96 h, %
NN1C(=O)CSC1=S | 80

====

- run description: Toxicity in Mus musculus ddY (mouse) assessed as mortality at 600 mg/kg, ip after 1 day
- Type: organism-based
- Parameters: dose 600 mg/kg, route intraperitoneal
- assay context: in vivo
measured metric: mortality at 24 h (%)

compound | numeric readout
O=C(O)CN1C(=O)CSC1=S [RHODANINE-3-ACETIC ACID] | 20

====

- run description: Toxicity in Mus musculus ddY (mouse) assessed as mortality at 275 mg/kg, ip after 1 day
- Format: organism-based
- Parameters: dose 275 mg/kg, route intraperitoneal
- assay context: in vivo
Items are presented alongside their recorded mortality at 24 h.
measured metric: mortality at 24 h (%)

molecular string | numeric readout
CN1C(=O)CSC1=S | 20
O=C1CSC(=S)N1 | 0

====

- run description: Toxicity in Mus musculus ddY (mouse) assessed as mortality at 375 mg/kg, ip after 6 days
- Type: organism-based
- Parameters: dose 375 mg/kg, route intraperitoneal
- assay context: in vivo

molecular string | mortality at 144 h [%]
O=C1CSC(=S)N1 | 100

====

- run description: Toxicity in Mus musculus ddY (mouse) assessed as mortality at 650 mg/kg, ip after 6 days
- Assay type: organism-based
- Set-up: dose 650 mg/kg, route intraperitoneal
- assay context: in vivo
measured metric: mortality at 144 h (%)

molecular string | result units | numeric readout
O=C(O)CN1C(=O)CSC1=S | % | 100

====

- run description: Toxicity in Mus musculus ddY (mouse) assessed as mortality at 6 mg/kg, ip after 5 days
- Assay type: organism-based
- Design: dose 6 mg/kg, route intraperitoneal
- assay context: in vivo
measured metric: mortality at 120 h (%)

molecular string | measured metric | numeric readout
NN1C(=O)CSC1=S | mortality at 120 h | 60

====

- run description: Toxicity in Mus musculus ddY (mouse) assessed as mortality at 5 mg/kg, ip after 1 day
- Format: organism-based
- Parameters: dose 5 mg/kg, route intraperitoneal
- assay context: in vivo

molecular string | result units | mortality at 24 h
NN1C(=O)CSC1=S | % | 60

====

- run description: Toxicity in Mus musculus ddY (mouse) assessed as mortality at 250 mg/kg, ip after 2 days
- Assay type: organism-based
- Set-up: dose 250 mg/kg, route intraperitoneal
- assay context: in vivo

compound | mortality at 48 h, %
CN1C(=O)CSC1=S [3-METHYL-RHODANINE] | 20

====

- Test system: Brassica rapa subsp. oleifera
- run description: Growth inhibition of Brassica rapa subsp. oleifera assessed as root growth at 1 x 10^-4 M after 7 days
- Assay type: functional

molecular string | Activity [mm]
NN1C(=O)CSC1=S | 14.1
CC(=O)NN1C(=O)CSC1=S | 47.4
O=C1CSC(=S)N1 | 38.7
CN1C(=O)CSC1=S | 52.7
O=C([O-])COc1ccc(Cl)cc1Cl.[Na+] | 2.6
O=C(NN1C(=O)CSC1=S)c1ccccc1 | 33.8
O=C(O)CN1C(=O)CSC1=S | 39.8

====

- Test system: Brassica rapa subsp. oleifera
- run description: Growth inhibition of Brassica rapa subsp. oleifera assessed as chlorophyll a level at 3 x 10^-4 M after 7 days
- Format: functional
- Design: scale not given: the % may be the effect or the level left
measured metric: Activity (%)

compound | measured metric | numeric readout
CN1C(=O)CSC1=S [3-METHYL-RHODANINE] | Activity | 10.77
CC(=O)NN1C(=O)CSC1=S [N-ACETYLAMINORHODANINE] | Activity | 9.35
O=C([O-])COc1ccc(Cl)cc1Cl.[Na+] | Activity | 3.16
